Data provenance: patent US9926282B2

# system_name: ROCK1 (Homo sapiens (Human))
# Sequence (Q13464 whole entry, species assumed): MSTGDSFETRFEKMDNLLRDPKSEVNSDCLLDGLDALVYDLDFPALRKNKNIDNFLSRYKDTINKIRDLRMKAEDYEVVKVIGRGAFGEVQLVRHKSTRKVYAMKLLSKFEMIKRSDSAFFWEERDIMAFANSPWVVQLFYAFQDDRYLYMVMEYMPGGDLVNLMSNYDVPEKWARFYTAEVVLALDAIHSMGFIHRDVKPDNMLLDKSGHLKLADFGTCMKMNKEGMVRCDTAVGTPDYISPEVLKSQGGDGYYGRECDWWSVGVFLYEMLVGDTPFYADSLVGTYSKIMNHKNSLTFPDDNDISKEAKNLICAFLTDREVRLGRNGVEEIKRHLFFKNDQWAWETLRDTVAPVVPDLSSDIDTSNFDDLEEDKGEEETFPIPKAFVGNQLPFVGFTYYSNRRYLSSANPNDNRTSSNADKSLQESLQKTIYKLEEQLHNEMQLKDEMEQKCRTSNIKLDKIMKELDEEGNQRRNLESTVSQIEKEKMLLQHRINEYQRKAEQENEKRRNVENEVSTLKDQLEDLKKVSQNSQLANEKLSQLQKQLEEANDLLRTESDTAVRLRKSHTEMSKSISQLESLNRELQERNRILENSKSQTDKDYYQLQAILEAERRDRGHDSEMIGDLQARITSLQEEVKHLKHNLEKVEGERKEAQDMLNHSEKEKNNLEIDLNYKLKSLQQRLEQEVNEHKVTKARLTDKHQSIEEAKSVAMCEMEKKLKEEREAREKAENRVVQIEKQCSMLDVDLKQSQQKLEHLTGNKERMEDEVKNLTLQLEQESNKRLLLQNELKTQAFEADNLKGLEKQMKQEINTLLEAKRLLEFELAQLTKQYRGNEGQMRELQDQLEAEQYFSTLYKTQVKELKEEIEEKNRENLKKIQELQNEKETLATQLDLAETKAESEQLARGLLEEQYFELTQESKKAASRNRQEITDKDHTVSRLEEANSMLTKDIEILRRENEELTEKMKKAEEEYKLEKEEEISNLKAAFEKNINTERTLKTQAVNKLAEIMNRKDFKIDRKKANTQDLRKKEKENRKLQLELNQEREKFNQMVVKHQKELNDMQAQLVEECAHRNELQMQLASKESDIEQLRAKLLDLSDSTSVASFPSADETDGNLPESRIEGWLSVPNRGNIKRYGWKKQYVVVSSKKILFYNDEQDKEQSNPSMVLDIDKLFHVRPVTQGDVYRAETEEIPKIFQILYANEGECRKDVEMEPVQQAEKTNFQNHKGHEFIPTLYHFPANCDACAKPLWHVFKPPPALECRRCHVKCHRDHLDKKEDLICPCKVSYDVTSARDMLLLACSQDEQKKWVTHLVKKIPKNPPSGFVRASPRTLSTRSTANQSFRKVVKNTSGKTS
# procedure_text: ROCK assay (LABCHIP peptide phosphorylation), ROCK1
# Type: biochemical
# condition_parameters: 5 μM ATP, 1.5 μM peptide substrate; read-out: ROCK1 IC50
pIC50: −log10 of the molar value.
metric_name: pIC50

Using the record for CN(C(=O)Cc1ccc(-c2n[nH]c(=O)c3ccccc23)cc1)c1ccccc1 [Example 22] , state its measured pIC50.
4.30 to 6.00

Please indicate pIC50 recorded for CC1(Cn2nc(C(=O)Nc3ccc(-c4n[nH]c(=O)c5ccccc45)c(Cl)c3)c3ccccc32)COC1 [Example 320]
7.00 to 10.00

Please report the measured pIC50 for COc1cc(-c2n[nH]c(=O)c3ccccc23)ccc1NC(=O)c1nn(CC(C)(C)O)c2ccccc12 [Example 357]
4.30 to 6.00

Identify measured pIC50 corresponding to COc1ccc2[nH]c(C(=O)Nc3ccc(-c4n[nH]c(=O)c5ccccc45)cc3)cc2c1 [Example 125]
7.00 to 10.00

Supply measured pIC50 of O=C(Nc1ccc(-c2n[nH]c(=O)c3ccccc23)cc1)c1cn2ccccc2n1 [Example 89] in your reply.
6.00 to 7.00

Kindly indicate its recorded pIC50. Item: O=C(Cc1ccc(-c2n[nH]c(=O)c3ccccc23)c(F)c1)N1Cc2ccccc2C1 [Example 37]
6.00 to 7.00

Give pIC50 for O=C(Nc1ccc(-c2n[nH]c(=O)c3ccccc23)cc1)N1CCc2ccccc21 [Example 76]
7.00 to 10.00

Entry Cc1nnc(NC(=O)Cc2ccc(-c3n[nH]c(=O)c4ccccc34)cc2)s1 [Example 31] needs its pIC50 filled in; supply it.
4.30 to 6.00
